Below are pIC50 values recorded for Tie-2 (Homo sapiens).
pIC50: −log10 of the molar value.

Q) Form field - read-out: pIC50; system: Tie-2 (Homo sapiens); submitted item: "O=C(Cc1cccc2ccccc12)N(CCc1n[nH]c(-c2ccncc2)n1)C1CCCC1"
Sequence (Q02763 23-1124): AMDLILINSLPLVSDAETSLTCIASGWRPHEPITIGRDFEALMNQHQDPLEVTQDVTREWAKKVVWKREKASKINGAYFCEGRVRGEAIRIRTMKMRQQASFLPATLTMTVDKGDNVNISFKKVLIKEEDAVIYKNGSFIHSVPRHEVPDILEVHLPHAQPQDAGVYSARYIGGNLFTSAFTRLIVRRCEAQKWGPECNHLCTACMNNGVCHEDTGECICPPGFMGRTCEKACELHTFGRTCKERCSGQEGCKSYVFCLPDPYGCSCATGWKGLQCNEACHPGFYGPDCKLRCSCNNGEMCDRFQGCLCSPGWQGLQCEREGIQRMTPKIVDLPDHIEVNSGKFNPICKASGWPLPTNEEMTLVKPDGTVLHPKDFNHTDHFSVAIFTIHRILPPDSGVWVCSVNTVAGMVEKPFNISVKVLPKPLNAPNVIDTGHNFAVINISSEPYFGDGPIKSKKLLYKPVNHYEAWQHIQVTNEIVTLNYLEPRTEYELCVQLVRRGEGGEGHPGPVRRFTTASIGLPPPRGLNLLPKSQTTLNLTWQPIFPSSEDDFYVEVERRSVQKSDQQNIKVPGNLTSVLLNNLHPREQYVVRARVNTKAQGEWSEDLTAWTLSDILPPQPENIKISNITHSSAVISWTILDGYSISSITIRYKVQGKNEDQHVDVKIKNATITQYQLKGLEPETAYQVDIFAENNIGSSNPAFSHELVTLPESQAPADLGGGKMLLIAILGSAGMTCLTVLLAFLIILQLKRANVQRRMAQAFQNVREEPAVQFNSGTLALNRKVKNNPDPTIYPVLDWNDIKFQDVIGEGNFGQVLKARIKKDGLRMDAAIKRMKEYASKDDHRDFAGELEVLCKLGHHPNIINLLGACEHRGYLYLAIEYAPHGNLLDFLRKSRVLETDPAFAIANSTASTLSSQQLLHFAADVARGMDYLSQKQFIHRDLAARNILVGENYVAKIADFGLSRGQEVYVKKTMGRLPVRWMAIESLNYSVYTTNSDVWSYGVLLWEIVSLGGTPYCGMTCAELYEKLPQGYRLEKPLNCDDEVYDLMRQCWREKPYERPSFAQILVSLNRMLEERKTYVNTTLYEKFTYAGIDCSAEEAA
A) > 7.30

Q) Form field - read-out: pIC50; system: Tie-2 (Homo sapiens); submitted item: "COc1ccc(-c2nc(-c3ccncc3)nn2CCN(C(=O)Nc2cc(Cl)c(OC)cc2OC)C2CCCC2)cc1Cl"
A) ≤ 5.00

Q) Form field - read-out: pIC50; system: Tie-2 (Homo sapiens); submitted item: "Cc1nc(-c2ccncc2)nn1CCN(C(=O)Cc1cccc2ccccc12)C1CC1"
A) 6.00 to 7.30

Q) Form field - read-out: pIC50; system: Tie-2 (Homo sapiens); submitted item: "COc1ccc(-c2nc(-c3ccncc3)nn2CCN(C(=O)Nc2ccccc2)C2CCCC2)cc1Cl"
A) ≤ 5.00

====

pIC50: −log10 of the molar value.
Below are pIC50 values recorded for Tie-2 (Homo sapiens).

COc1ccc(-c2nc(-c3ccncc3)nn2CCN(C(=O)c2ccc3ccccc3c2)C2CCCC2)cc1Cl    ≤ 5.00
Cc1nc(-c2ccnc(NCCN3CCCCC3)n2)nn1CCN(C(=O)Cc1cccc2ccccc12)C1CCCC1    > 7.30
COc1ccc(-c2nc(-c3ccncc3)nn2CCN(C(=O)Nc2cc(Cl)cc(Cl)c2)C2CCCC2)cc1Cl    ≤ 5.00
Cc1nc(-c2ccncc2)nn1CCN(CCN1CCCCC1)C(=O)Cc1cccc2ccccc12    ≤ 5.00
CCOC(=O)Cn1nc(-c2ccncc2)nc1-c1ccc([N+](=O)[O-])cc1    ≤ 5.00
COc1ccc(-c2nc(-c3ccncc3)nn2CCN(C(=O)Nc2ccc(Cl)cc2C)C2CCCC2)cc1Cl    5.00 to 6.00
COc1ccc(-c2nc(-c3ccncc3)n(CCN(C(=O)Cc3cccc4ccccc34)C3CCCC3)n2)cc1OC    6.00 to 7.30

Pending compound:
Q) Any idea what pIC50 was measured for "COc1ccc(-c2nc(-c3ccncc3)nn2CCN(C(=O)Nc2ccccc2C(C)C)C2CCCC2)cc1Cl" ?
A) ≤ 5.00

====

Below are IC50 values recorded for Tie-2 (Homo sapiens, UniProt Q02763).

# count of solved cases: 4
COc1ccc(-c2nc(-c3ccncc3)nn2CCN(C(=O)Nc2ccc(C)cc2C)C2CCCC2)cc1Cl    ≥ 10 µM
O=C(Cc1cccc2ccccc12)N(CCn1nc(-c2ccncc2)nc1-c1ccc(O)c(Cl)c1)C1CCCC1    < 0.05 µM
CCNC(=O)N(CCn1nc(-c2ccncc2)nc1-c1ccc(OC)c(Cl)c1)C1CCCC1    ≥ 10 µM
COc1ccc(-c2nc(-c3ccncc3)nn2CCN(C(=O)Nc2ccc(C)c(C)c2)C2CCCC2)cc1Cl    ≥ 10 µM

Pending molecule:
Q) Any idea what IC50 was measured for "COc1ccc(-c2nc(-c3ccncc3)nn2CCN(C(=O)Nc2cccc(C)c2)C2CCCC2)cc1Cl" ?
A) ≥ 10 µM

FYI, the data here is from patent US8178570B2.
